# Test system: SARS-CoV-2, USA-WA1/2020
# Procedure Summary: Antiviral assay: inhibition of SARS-CoV-2 cytopathic effect, neutral red
# Assay type: cell-based
# Experimental Parameters: Severe acute respiratory syndrome coronavirus 2; Vero 76 cells, CPE inhibition by 50%, neutral red; i) and ii) are separate determinations; read-out: Anti-viral Assay (EC50)
pEC50: −log10 of the molar value.
Parameter: pEC50

Lookup result for "N#C[C@@]1(c2ccc3c(N)ncnn23)O[C@H](CO)[C@@H](O)[C@H]1O" ; measured pEC50: 5.96 to 6.30

Each recorded value in this set is attributed to patent US11279727B2.
